# Tested on: 282377-053-R-J1-PDC complex spheroid viability
# assay_overview: Anticancer human tumor 282377-053-R-J1-PDC patient-derived colon adenocarcinoma cell line growth inhibition [POLQ]
# assay_setup: second compound 0.1 µM; first compound 3.16 µM; active compounds read low
Entries and their viability, T/C
Express your answer in %, writing the number without its unit.

INSERT INTO results (compound, target_or_system, measured_property, quantitative_readout) VALUES
  ('C#Cc1c(F)ccc2cc(O)cc(-c3ncc4c(N5CC6CCC(C5)N6)nc(OCC56CCCN5CC(F)C6)nc4c3F)c12 (stereo not given) + Cc1cccc(N(C)C(=O)C2C(O)CCN2c2nc(C)cc(C(F)(F)F)c2C#N)c1', '282377-053-R-J1-PDC complex spheroid viability', 'viability, T/C', 106),
  ('CCc1cc2c(N3CCc4c(cc(Cn5ccnc5)cc4-c4cn(C)nc4C(F)(F)F)C3=O)cc(C)nc2c(OC)n1 + COC1C(OC(N)=O)C(O)C(Oc2ccc3c(O)c(NC(=O)c4ccc(O)c(CC=C(C)C)c4)c(=O)oc3c2C)OC1(C)C', '282377-053-R-J1-PDC complex spheroid viability', 'viability, T/C', 134),
  ('CCCS(=O)(=O)Nc1ccc(F)c(C(=O)c2c[nH]c3ncc(-c4ccc(Cl)cc4)cc23)c1F + COC1C(OC(N)=O)C(O)C(Oc2ccc3c(O)c(NC(=O)c4ccc(O)c(CC=C(C)C)c4)c(=O)oc3c2C)OC1(C)C', '282377-053-R-J1-PDC complex spheroid viability', 'viability, T/C', 60),
  ('CCc1cc2c(N3CCc4c(cc(Cn5ccnc5)cc4-c4cn(C)nc4C(F)(F)F)C3=O)cc(C)nc2c(OC)n1 + Nc1ccc(C#CCN(C(=O)Cc2ncc(C(F)(F)F)cc2C(F)(F)F)c2ccc(F)cc2)nn1', '282377-053-R-J1-PDC complex spheroid viability', 'viability, T/C', 93.4),
  ('O=c1[nH]cc(F)c(=O)[nH]1 + COC1C(OC(N)=O)C(O)C(Oc2ccc3c(O)c(NC(=O)c4ccc(O)c(CC=C(C)C)c4)c(=O)oc3c2C)OC1(C)C', '282377-053-R-J1-PDC complex spheroid viability', 'viability, T/C', 72.1),
  ('CC(C)n1c(=O)n(C)c2cnc3cc(F)c(-c4ccc(OCCCN5CCCCC5)nc4)cc3c21 + Cc1cccc(N(C)C(=O)C2C(O)CCN2c2nc(C)cc(C(F)(F)F)c2C#N)c1', '282377-053-R-J1-PDC complex spheroid viability', 'viability, T/C', 129),
  ('COc1cc2cc(C(=O)CCC(=O)O)sc2cc1OC + COC1C(OC(N)=O)C(O)C(Oc2ccc3c(O)c(NC(=O)c4ccc(O)c(CC=C(C)C)c4)c(=O)oc3c2C)OC1(C)C', '282377-053-R-J1-PDC complex spheroid viability', 'viability, T/C', 99.1),
  ('CC1COCCN1c1cc(C2(O)CC3CCC(C2)O3)c2cnn(-c3ccn[nH]3)c2n1 (stereo not given) + COC1C(OC(N)=O)C(O)C(Oc2ccc3c(O)c(NC(=O)c4ccc(O)c(CC=C(C)C)c4)c(=O)oc3c2C)OC1(C)C', '282377-053-R-J1-PDC complex spheroid viability', 'viability, T/C', 28.2),
  ('C=CC(=O)N1CCN(c2nc(=O)n(-c3c(C)ccnc3C(C)C)c3nc(-c4c(O)cccc4F)c(F)cc23)C(C)C1 (stereo not given) + COC1C(OC(N)=O)C(O)C(Oc2ccc3c(O)c(NC(=O)c4ccc(O)c(CC=C(C)C)c4)c(=O)oc3c2C)OC1(C)C', '282377-053-R-J1-PDC complex spheroid viability', 'viability, T/C', 108);

Exam item: State the recorded viability, T/C for this entry: COc1cc(C2c3cc4c(cc3C(OC3OC5COC(C)OC5C(O)C3O)C3COC(=O)C23)OCO4)cc(OC)c1O (stereo not given) + Cc1cccc(N(C)C(=O)C2C(O)CCN2c2nc(C)cc(C(F)(F)F)c2C#N)c1
Marked response: 89.1

====

# Test system: 282377-053-R-J1-PDC complex spheroid viability
# assay_overview: Anticancer human tumor 282377-053-R-J1-PDC cell line growth inhibition [POLQ];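 note: spheroids exposed to compounds for seven days; 100% = DMSO vehicle control viability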
# assay_setup: second compound 0.0316 µM; first compound 0.1 µM; active compounds read low
Hi! Could you tag entries with viability, T/C below 90% as True, and those at or above as False? Much appreciated.

Study these solved cases before continuing.
INSERT INTO results (compound, target_or_system, class_assignment) VALUES
  ('CCc1c2c(nc3ccc(O)cc13)-c1cc3c(c(=O)n1C2)COC(=O)[C@]3(O)CC + Nc1ccc(C#CCN(C(=O)Cc2ncc(C(F)(F)F)cc2C(F)(F)F)c2ccc(F)cc2)nn1', '282377-053-R-J1-PDC complex spheroid viability', 'True'),
  ('C=CCn1c(=O)c2cnc(Nc3ccc(N4CCN(C)CC4)cc3)nc2n1-c1cccc(C(C)(C)O)n1 + Nc1ccc(C#CCN(C(=O)Cc2ncc(C(F)(F)F)cc2C(F)(F)F)c2ccc(F)cc2)nn1', '282377-053-R-J1-PDC complex spheroid viability', 'False'),
  ('CC[C@@]1(O)C(=O)OCc2c1cc1n(c2=O)Cc2cc3c(CN(C)C)c(O)ccc3nc2-1 + Cc1cccc(N(C)C(=O)C2C(O)CCN2c2nc(C)cc(C(F)(F)F)c2C#N)c1', '282377-053-R-J1-PDC complex spheroid viability', 'True'),
  ('Cn1ncnc1[C@H]1c2n[nH]c(=O)c3cc(F)cc(c23)N[C@@H]1c1ccc(F)cc1 + Nc1ccc(C#CCN(C(=O)Cc2ncc(C(F)(F)F)cc2C(F)(F)F)c2ccc(F)cc2)nn1', '282377-053-R-J1-PDC complex spheroid viability', 'False'),
  ('CCc1cc2c(N3CCc4c(cc(Cn5ccnc5)cc4-c4cn(C)nc4C(F)(F)F)C3=O)ccnc2c(OC)n1 + COC1C(OC(N)=O)C(O)C(Oc2ccc3c(O)c(NC(=O)c4ccc(O)c(CC=C(C)C)c4)c(=O)oc3c2C)OC1(C)C', '282377-053-R-J1-PDC complex spheroid viability', 'False'),
  ('CC(C)n1c(=O)n(C)c2cnc3cc(F)c(-c4ccc(OCCCN5CCCCC5)nc4)cc3c21 + COC1C(OC(N)=O)C(O)C(Oc2ccc3c(O)c(NC(=O)c4ccc(O)c(CC=C(C)C)c4)c(=O)oc3c2C)OC1(C)C', '282377-053-R-J1-PDC complex spheroid viability', 'False'),
  ('Nc1ccn(C2OC(CO)C(O)C2(F)F)c(=O)n1 (centres undefined) + Cc1cccc(N(C)C(=O)C2C(O)CCN2c2nc(C)cc(C(F)(F)F)c2C#N)c1', '282377-053-R-J1-PDC complex spheroid viability', 'True'),
  ('CC1COCCN1c1cc(-c2ccnn2C)c2ccnc(-c3ccn[nH]3)c2n1 (centres undefined) + Cc1cccc(N(C)C(=O)C2C(O)CCN2c2nc(C)cc(C(F)(F)F)c2C#N)c1', '282377-053-R-J1-PDC complex spheroid viability', 'True');

Exam item: Dear colleague, could you confirm whether viability, T/C of CCc1cc2c(N3CCc4c(cc(Cn5ccnc5)cc4-c4cn(C)nc4C(F)(F)F)C3=O)ccnc2c(OC)n1 + Cc1cccc(N(C)C(=O)C2C(O)CCN2c2nc(C)cc(C(F)(F)F)c2C#N)c1 falls below 90%? Thanks.
Marked response: False

Exam item: Report whether reported viability, T/C is lower than 90% (strictly) for COc1cccc2c1C(=O)c1c(O)c3c(c(O)c1C2=O)CC(O)(C(=O)CO)CC3OC1CC(N)C(O)C(C)O1 (centres undefined) + Nc1ccc(C#CCN(C(=O)Cc2ncc(C(F)(F)F)cc2C(F)(F)F)c2ccc(F)cc2)nn1
Marked response: False

Exam item: Would you kindly verify if viability, T/C of C=CC(=O)N1CCN(c2nc(=O)n(-c3c(C)ccnc3C(C)C)c3nc(-c4c(O)cccc4F)c(F)cc23)C(C)C1 (centres undefined) + COC1C(OC(N)=O)C(O)C(Oc2ccc3c(O)c(NC(=O)c4ccc(O)c(CC=C(C)C)c4)c(=O)oc3c2C)OC1(C)C is strictly less than 90%?
Marked response: False

Exam item: is_below(viability, T/C, 90%) for C=CC(=O)N1CCN(c2nc(=O)n(-c3c(C)ccnc3C(C)C)c3nc(-c4c(O)cccc4F)c(F)cc23)C(C)C1 (centres undefined) + Cc1cccc(N(C)C(=O)C2C(O)CCN2c2nc(C)cc(C(F)(F)F)c2C#N)c1 ?
Marked response: True

Exam item: Consider CCc1cc2c(N3CCc4c(cc(Cn5ccnc5)cc4-c4cn(C)nc4C(F)(F)F)C3=O)cc(C)nc2c(OC)n1 + Cc1cccc(N(C)C(=O)C2C(O)CCN2c2nc(C)cc(C(F)(F)F)c2C#N)c1 . Does its viability, T/C lie strictly below 90%?
Marked response: False

Exam item: In plain terms, does CC(C)n1c(=O)n(C)c2cnc3cc(F)c(-c4ccc(OCCCN5CCCCC5)nc4)cc3c21 + Nc1ccc(C#CCN(C(=O)Cc2ncc(C(F)(F)F)cc2C(F)(F)F)c2ccc(F)cc2)nn1 come in under 90% for viability, T/C?
Marked response: False
